Attribution: patent USRE48461E1

The entries below are paired with their reported Percent inhibition of AR mRNA.
system: AR mRNA; test: AR mRNA in LnCaP cells by free uptake (hAR_LTS00943); format: cell-based, human; conditions: 0.02 μM, 24 hrs
Oligonucleotides are written 5' to 3', each unit as a sugar letter and its base; * is a phosphorothioate linkage, no mark a phosphodiester; rarer units and linkages stand in square brackets, end groups in braces. Plain capitals give the bases only. e = 2'-O-(2-methoxyethyl) (MOE); l = locked nucleic acid (LNA); k = constrained ethyl (cEt); [5mC] = 5-methylcytosine; d = 2'-deoxy (DNA)
ASSAY_READOUT: Percent inhibition of AR mRNA (%)

569236 (antisense eT*kG*kA*kT*dT*dT*dA*dA*dT*dG*dG*kT*kT*kG*e[5mC]*eA) [compound 569236]
3
579666 (antisense eT*kG*kA*eT*eT*kT*kA*dA*dT*dG*dG*dT*dT*dG*k[5mC]*kA) [compound 579666]
0
569227 (antisense eT*eG*kA*kT*kT*dT*dA*dA*dT*dG*dG*dT*kT*kG*k[5mC]*eA) [compound 569227]
0
586124 (kG*kA*kT*dT*dT*dA*dA*dT*dG*dG*dT*dT*dG*k[5mC]*kA*kA; further chemistry not given here) [compound 586124]
0
586227 (kT*kG*kA*kT*kT*dT*dA*dA*dT*dG*dG*dT*dT*kG*k[5mC]*kA; antisense) [compound 586227]
0
583918 (kA*kG*kT*d[5mC]*dG*d[5mC]*dG*dA*d[5mC]*dT*d[5mC]*dT*dG*kG*kT*kA) [compound 583918]
8
579667 (antisense eT*kT*kG*eA*eT*kT*kT*dA*dA*dT*dG*dG*dT*dT*kG*k[5mC]) [compound 579667]
0
554221 (ACCAAGTTTCTTCAGC; sugars from the 5' end l3 d10 l3, all phosphorothioate, methylation of C not given here) [compound 554221]
0
549372 (kA*kA*kG*dT*dT*dG*dT*dA*dG*dT*dA*dG*dT*k[5mC]*kG*k[5mC]) [compound 549372]
0
579671 (antisense eT*kT*kG*eA*kT*kT*dT*dA*dA*dT*dG*dG*dT*kT*kG*k[5mC]) [compound 579671]
15
569221 (antisense eT*eG*kA*kT*kT*dT*dA*dA*dT*dG*dG*dT*dT*kG*k[5mC]*kA) [compound 569221]
18
584149 (kG*kT*k[5mC]*dA*dA*dT*dA*dT*d[5mC]*dA*dA*dA*dG*k[5mC]*kA*k[5mC]) [compound 584149]
0
584468 (k[5mC]*kA*kT*dT*dG*dT*dA*d[5mC]*dT*dA*dT*dG*d[5mC]*k[5mC]*kA*kG) [compound 584468]
0
569213 (antisense kT*kG*kA*dT*dT*dT*dA*dA*dT*dG*dG*dT*kT*kG*k[5mC]*eA) [compound 569213]
3
569216 (antisense eT*kG*kA*kT*dT*dT*dA*dA*dT*dG*dG*dT*kT*kG*k[5mC]*eA) [compound 569216]
15
560131 (antisense kT*kT*kG*dA*dT*dT*dT*dA*dA*dT*dG*dG*kT*kT*kG*e[5mC]) [compound 560131]
0
